Kindly state TGI for each of the entries shown.
System: COLO 205 colon
Test: NCI tumour cell line growth inhibition, 48 h

Kindly note the recorded TGI for CC(=O)NNc1nc(C)c(C(/C=C/c2ccc(Cl)cc2)=N\N=C(N)N)s1 , which is > 100 µM

Kindly note the recorded TGI for CCNC(=O)Oc1ccc(/C(=C(\C)c2ccc(Cl)cc2)c2ccc(OCCN(CC)CC)cc2)cc1 , which is 3.94 µM

Kindly note the recorded TGI for O=C(CC(=O)N1N=C(n2ccc3ccccc32)CC1c1ccccc1)Nc1ccc(Cl)cc1 (stereo not drawn) , which is > 100 µM

Kindly note the recorded TGI for O=S1(=O)OCCOS(=O)(=O)C1(Cl)Cl , which is > 100 µM

Kindly note the recorded TGI for N#CC(c1ccccc1)N(CCc1ccccc1)C(=O)c1ccc(C(=O)N(CCc2ccccc2)C(C#N)c2ccccc2)cc1 (stereo not drawn) , which is 55.6 µM

Kindly note the recorded TGI for O=C(O)C1CC(C2CCCCN2)CN2CCCCC12 (stereo not drawn) , which is > 100 µM

Kindly note the recorded TGI for COC1=CC(=O)c2c(c(COC(C)=O)cn2C)C1=O , which is 0.0943 µM

Kindly note the recorded TGI for Cc1cc2nc3c(=O)[nH]c(=O)nc-3n(CC(O)C(O)C(O)CO)c2cc1N (stereo not drawn) , which is > 100 µM

Kindly note the recorded TGI for COc1ccc(OC)c(N=Cc2cc(OC)c(OC)c(OC)c2)c1 , which is > 100 µM

Kindly note the recorded TGI for CON=C1C[C@]2(C[C@@H]3C[C@@H](C/C=C(\C)C[C@@H](C)/C=C/C=C4\CO[C@@H]5[C@H](O)C(C)=C[C@@H](C(=O)O3)[C@]45O)O2)O[C@H](/C(C)=C/C(C)C)[C@H]1C , which is 28.5 µM

Kindly note the recorded TGI for Clc1ccc(C2CC(c3cccc(Nc4ccncc4)c3)=NN2c2ccccc2)cc1 (stereo not drawn) , which is 4.5 µM

Kindly note the recorded TGI for Cc1ccc(NC(=O)CCc2nnc3s/c(=C\c4cccc([N+](=O)[O-])c4)c(=O)n23)cc1 , which is > 100 µM

Kindly note the recorded TGI for COC(=O)CN=C1NC(=S)N(Cc2ccc(OC)cc2)C12CCCC2 , which is > 100 µM

Kindly note the recorded TGI for Cc1ccc(N=NN(C)C(C)C(O)Cc2ccccc2)cc1 (stereo not drawn) , which is > 100 µM

Kindly note the recorded TGI for Cn1nc(-c2ccccc2)c2c(/C=C/c3ccc(Cl)cc3)onc2c1=O , which is > 100 µM

Kindly note the recorded TGI for CS(=O)(=O)c1ccc2c(c1)C(=O)c1c-2n(CCCBr)c(=O)c2cc([N+](=O)[O-])ccc12 , which is > 100 µM

Kindly note the recorded TGI for O=c1ccn(Cc2ccccc2CCl)c(=O)[nH]1 , which is 94.3 µM

Kindly note the recorded TGI for CCc1cccc(C)c1N1C(=O)C(=O)C(c2nc3ccccc3o2)/C(=N/NC(=S)NN)C1=O (stereo not drawn) , which is > 100 µM

Kindly note the recorded TGI for COc1cc(-c2cc(-c3cccs3)c(C#N)c(N3CCOCC3)n2)cc(OC)c1OC , which is 6.62 µM

Kindly note the recorded TGI for O=c1c2cccc(F)c2sc2c(NCCCNCCO)nc3ccccc3c12 , which is 3.96 µM

Kindly note the recorded TGI for COC(=O)CC1C2(C)C3=C(C)C(c4ccoc4)CC3OC2C2OC(=O)C3(C)C=CC(=O)C1(C)C23 (stereo not drawn) , which is 3.58 µM

Kindly note the recorded TGI for Cc1cn(CC2=NC3CCCCC3N2)c(=O)[nH]c1=O (stereo not drawn) , which is > 100 µM

Kindly note the recorded TGI for O=C(Nc1ccc(Oc2ccc(NC(=O)Nc3ccccc3Cl)cc2)cc1)Nc1ccccc1Cl , which is > 100 µM

Kindly note the recorded TGI for O=C1C[C@@H]2[C@@H](CCC23CCCC3)N1 , which is > 100 µM

Kindly note the recorded TGI for COc1ccc(C(=O)N2CCN(c3ccc4c(c3)OCC(=O)N4)CC2)cc1OC , which is > 100 µM

Kindly note the recorded TGI for Cc1n[nH]c(=O)n1Nc1ccccc1 , which is > 100 µM

Kindly note the recorded TGI for C[C@@H](Oc1ccc(Oc2cnc3ccc(Cl)cc3n2)cc1)C(=O)O , which is > 100 µM

Kindly note the recorded TGI for CC(C)(C)[Si](C)(C)OC1[C@@H](O[Si](C)(C)C(C)(C)C)[C@@H](CNC(=O)NC(=O)NC(=O)CCl)O[C@H]1n1cnc2c(NC(=O)Nc3ccccc3)ncnc21 (stereo partly drawn) , which is 13 µM

Kindly note the recorded TGI for Cc1ccc(NC(=O)CC(=O)N2N=C(N3CCCCC3)CC2c2ccccc2)cc1 (stereo not drawn) , which is > 100 µM

Kindly note the recorded TGI for O=c1sc(Nc2ccc3ccccc3c2Cl)nc2ccccc12 , which is > 100 µM

Kindly note the recorded TGI for CN1C(=O)/C(=C2\S/C(=N\c3nnc(-c4ccccc4)o3)NC2=O)c2ccccc21 , which is > 100 µM

Kindly note the recorded TGI for C/C(=N\Nc1nc2ccccc2o1)c1ncccn1 , which is 15.8 µM

Kindly note the recorded TGI for O=C1N=CN=C2C=CC(Cl)=C(I)C12 (stereo not drawn) , which is > 100 µM

Kindly note the recorded TGI for COc1cccc(N2C(=O)/C(=C/c3ccc(N(CCC#N)CCC#N)cc3)N=C2c2cc([N+](=O)[O-])ccc2Cl)c1 , which is 62.4 µM

Kindly note the recorded TGI for CCOc1cc(/C=N/c2nc3cc4sc(/N=C/c5ccc(O)c(OCC)c5)nc4cc3s2)ccc1O , which is > 100 µM

Kindly note the recorded TGI for CCC1=C[C@@H]2CN(C1)Cc1c([nH]c3ccccc13)[C@@](C(=O)OC)(c1cc3c(cc1OC)N(C)[C@H]1[C@@](O)(C(=O)OC)[C@H](OC(C)=O)[C@]4(CC)C=CCN5CC[C@]31[C@@H]54)C2 , which is 0.0775 µM

Kindly note the recorded TGI for O=C1C=CC(=O)c2c(O)c(NCCO)c(Cl)c(O)c21 , which is 3.4 µM

Kindly note the recorded TGI for O=C(Nc1ccn(C2CC(I)C(COC(c3ccccc3)(c3ccccc3)c3ccccc3)O2)c(=O)n1)c1ccccc1 (stereo not drawn) , which is 12.8 µM

###

Test system: MCF7 breast
Assay: NCI tumour cell line growth inhibition, 48 h; in the data active = GI50 below about 0.43 µM; inactive = the rest
Choose one outcome from this list and give only that: yes for active, no for inactive

Dear all, I need the recorded test outcome for CS(=O)(=O)c1ccc2c(c1)C(=O)c1c-2n(CCCBr)c(=O)c2cc([N+](=O)[O-])ccc12 , thank you.
no

Dear all, I need the recorded test outcome for Cc1cncc(-c2nc(NCCc3c[nH]c4ccccc34)c3ncn(C(C)C)c3n2)c1 , thank you.
no

Dear all, I need the recorded test outcome for Nc1c(C(=O)c2ccc(C#CCN3CCOCC3)cc2)cnn1-c1ccc(F)cc1 , thank you.
no

Dear all, I need the recorded test outcome for CON=C1C[C@]2(C[C@@H]3C[C@@H](C/C=C(\C)C[C@@H](C)/C=C/C=C4\CO[C@@H]5[C@H](O)C(C)=C[C@@H](C(=O)O3)[C@]45O)O2)O[C@H](/C(C)=C/C(C)C)[C@H]1C , thank you.
no

Dear all, I need the recorded test outcome for COc1ccc(/C(=C/c2ccc3ccccc3c2)c2nn[nH]n2)cc1OC , thank you.
no

Dear all, I need the recorded test outcome for CCC1=C[C@@H]2CN(C1)Cc1c([nH]c3ccccc13)[C@@](C(=O)OC)(c1cc3c(cc1OC)N(C)[C@H]1[C@@](O)(C(=O)OC)[C@H](OC(C)=O)[C@]4(CC)C=CCN5CC[C@]31[C@@H]54)C2 , thank you.
yes

Dear all, I need the recorded test outcome for COc1cccc(CCNC(=O)CC(c2ccccc2)(c2ccccc2)c2ccccc2)c1 , thank you.
no

Dear all, I need the recorded test outcome for C=C1C[C@@H](O)[C@@H](Br)C(C)(C)[C@]12CCC(C)(Br)C(Cl)C2 (some centres undefined) , thank you.
no

Dear all, I need the recorded test outcome for O=C(NCCCl)NCCN1c2nc3ccccc3cc2Sc2cc3ccccc3nc21 , thank you.
no

Dear all, I need the recorded test outcome for O=C(/C=C/c1ccco1)Nc1ncc(Cc2cccc(C(F)(F)F)c2)s1 , thank you.
yes

Dear all, I need the recorded test outcome for Cc1ccc(/C=C(/C#N)n2nnc3ncccc32)cc1 , thank you.
no

Dear all, I need the recorded test outcome for COc1ccc2nc3cc(Cl)ccc3c(NCCNCC(O)CO)c2c1 (centres undefined) , thank you.
no

Dear all, I need the recorded test outcome for COc1cc(-c2cc(-c3cccs3)c(C#N)c(N3CCOCC3)n2)cc(OC)c1OC , thank you.
no

Dear all, I need the recorded test outcome for Cc1ccc(S(=O)(=O)OCC(=O)Nc2ccc(C(=O)O)c(O)c2)cc1 , thank you.
no

Dear all, I need the recorded test outcome for CC[C@@]1(O)C(=O)OCc2c1cc1n(c2=O)Cc2cc3c(CN(C)C)c(O)ccc3nc2-1 , thank you.
yes

Dear all, I need the recorded test outcome for CCC(CC)c1cc(N[C@H]2CC[C@H](N)C2)n2nccc2n1 , thank you.
yes

Dear all, I need the recorded test outcome for CCCCCCCCCCCCNC(=O)N[C@H](C(=O)N[C@H]1/C=C/CCNC(=O)/C=C/[C@H](C)NC1=O)C(C)C , thank you.
yes

Dear all, I need the recorded test outcome for Clc1ccc(-c2nc3c(-c4ccccc4)nc(-c4ccccc4)cn3c2-c2ccc(Cl)cc2)cc1 , thank you.
no

Dear all, I need the recorded test outcome for NS(=O)(=O)c1ccc(N=Nc2c(O)[nH]c3ccc(C(=O)NCCc4cnc[nH]4)cc23)cc1 , thank you.
no

# credit: PubChem BioAssay (NCI)
